All values here come from patent US20250152585A1.

measuredTarget: UniProtKB P09874
Sequence (P09874 whole entry): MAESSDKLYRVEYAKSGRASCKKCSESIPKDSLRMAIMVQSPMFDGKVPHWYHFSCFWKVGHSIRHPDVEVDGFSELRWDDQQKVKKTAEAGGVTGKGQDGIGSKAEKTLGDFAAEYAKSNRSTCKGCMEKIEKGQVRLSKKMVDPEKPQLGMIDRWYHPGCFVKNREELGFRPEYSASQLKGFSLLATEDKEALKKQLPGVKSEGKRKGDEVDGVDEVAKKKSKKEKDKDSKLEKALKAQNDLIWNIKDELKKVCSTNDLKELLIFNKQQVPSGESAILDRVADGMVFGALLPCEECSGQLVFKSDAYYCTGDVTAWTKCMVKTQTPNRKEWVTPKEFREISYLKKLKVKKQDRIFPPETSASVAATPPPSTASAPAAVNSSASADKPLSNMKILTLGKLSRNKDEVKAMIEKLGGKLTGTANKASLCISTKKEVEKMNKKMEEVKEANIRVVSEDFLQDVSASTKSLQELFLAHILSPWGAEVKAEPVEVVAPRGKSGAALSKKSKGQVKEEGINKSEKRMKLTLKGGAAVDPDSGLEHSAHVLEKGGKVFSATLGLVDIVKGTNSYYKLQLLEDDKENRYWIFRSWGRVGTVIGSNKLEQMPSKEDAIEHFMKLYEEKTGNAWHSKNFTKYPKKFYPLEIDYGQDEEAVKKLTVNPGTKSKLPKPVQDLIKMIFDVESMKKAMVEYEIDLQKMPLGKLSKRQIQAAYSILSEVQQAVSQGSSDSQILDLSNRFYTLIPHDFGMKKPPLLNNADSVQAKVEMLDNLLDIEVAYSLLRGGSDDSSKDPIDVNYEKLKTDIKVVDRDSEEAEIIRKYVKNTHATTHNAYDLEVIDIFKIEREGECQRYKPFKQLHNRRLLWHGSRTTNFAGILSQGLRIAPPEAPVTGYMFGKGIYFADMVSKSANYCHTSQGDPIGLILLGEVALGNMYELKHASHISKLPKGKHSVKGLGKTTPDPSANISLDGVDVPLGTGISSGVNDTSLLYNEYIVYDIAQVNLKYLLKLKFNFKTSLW
testDetails: PARP1 biochemical DELFIA assay (auto-PARylation)
Parameters: recombinant full length human N-terminally FLAG-tagged PARP1
measurementParameters: binned IC50, PARP1 biochemical DELFIA assay
observedProperty: IC50

>>> print(df.to_string())
                                   molecule  observedproperty          measured
0  CNC(=O)c1ccc(N2CCC(C(=O)N3CCC(c4nc5ccccc5c(=O)[nH]4)CC3)CC2)cn1              IC50           < 10 nM
1  CNC(=O)c1ccc(N2CCC(N3CCC(c4ccc(OC)c(=O)[nH]4)C3)CC2)c(C(F)(F)F)n1 (single isomer, unassigned) [Compound 152a]              IC50           < 10 nM
2  CCc1nc(C(=O)NC)ccc1N1CCC(N2CCC(c3nc4ccccc4c(=O)[nH]3)C2)CC1 (single isomer, unassigned) [Compound 118b]              IC50      10 to 100 nM
3  CNC(=O)c1ccc(N2CCC(N3CCC(c4ccc(OC)c(=O)[nH]4)C3)CC2)cn1 (single isomer, unassigned) [Compound 148a]              IC50  1000 to 10000 nM
